Experiment: qHTS assay for small molecule disruptors of the mitochondrial membrane potential - 1 hr assay (AID 651754); note: nearly all actives have a fitted effect of over 35% in size; note: potency is the fitted concentration of half-maximal effect
Settings: series mostly up to 92.2 µM
Inconclusive results are not listed. The source made the active and inactive calls. Calls come from the whole dose curve.
quantity_kind: Potency

Illustrative cases are given below, each with its answer.
c1ccc(Nc2ccc3ccccc3c2)cc1: 37.6 µM (active)
Oc1ccccc1Cl: inactive
CC(C)COC(=O)c1ccccc1C(=O)OCC(C)C: inactive
COC1=CC(=O)OC(CCc2ccc3c(c2)OCO3)C1 (stereo not given): inactive

Now turn to the next molecule.
Indicate the recorded Potency value for this molecule: Oc1c(Cl)c(Cl)c(Cl)c(Cl)c1Cl 42.2 µM (active)

The measurements presented in this section are drawn from PubChem BioAssay (NCATS).
